# System: KM-20L2
# test_description: NCI tumour cell line growth inhibition, 48 h
Calls of active or inactive are those of the source. Rule as the data show it: active = GI50 up to about 1.1 µM and inactive = higher.
endpoint_label: GI50

Below, 3 molecules whose answers are already recorded.
COC1CC(OS(=O)(=O)c2ccc(C)cc2)C(OC(=O)c2ccccc2)C(C)O1 (stereo not given) :: > 10 µM (inactive)
C/C=C/C=N/N(C(=O)c1cc([N+](=O)[O-])cc([N+](=O)[O-])c1)C1=NN=C(c2ccccc2)C(c2ccccc2)N1 (stereo not given) :: 32.1 µM (inactive)
CC1=C(C(=O)Nc2ccccc2)C(c2ccc3c(c2)OCO3)C(C(=O)Nc2ccccc2)=C(C)N1 :: > 10 µM (inactive)

Quick one: GI50 of CN(C(=O)C1CC1)C1C2CN3CCC(O2)C13 (stereo not given) ?
> 100 µM (inactive)

Quick one: GI50 of CNS(=O)(=O)NNS(=O)(=O)c1ccc(Cl)cc1 ?
> 100 µM (inactive)

Quick one: GI50 of CCCCC1CC(c2cccc([N+](=O)[O-])c2)=NO1 (stereo not given) ?
> 100 µM (inactive)

Quick one: GI50 of O=C(Nc1ccc(Cl)cc1C(=O)O)c1ccc([N+](=O)[O-])cc1 ?
21.8 µM (inactive)

Quick one: GI50 of C=C1C[C@]23CCC4C(C)(C)C(=O)CC[C@]4(C)C2C[C@H]1C(O)C3=O (stereo not given in full) ?
> 75 µM (inactive)

Quick one: GI50 of COc1cc(C2C(Cl)C(=O)N2NC(=O)Cc2ccccc2)cc(Br)c1O (stereo not given) ?
> 100 µM (inactive)

Quick one: GI50 of COc1ccc(C2=C3c4cc(OC)c(OC)cc4CCN3C(=S)SS2)cc1OC ?
75.9 µM (inactive)

====

Below: a set of entries, each annotated with reported GI50.
# System: UO-31
# test_description: NCI tumour cell line growth inhibition, 48 h
Calls of active or inactive are those of the source. Cut-off read from the data, not from the text of the source: active = GI50 up to about 1.1 µM and inactive = higher.

Below, 2 molecules whose answers are already recorded.
O=C(O)CCC1CCc2cccc3occ1c23 (stereo not drawn) :: > 100 µM (inactive)
CC(C(=O)COCc1ccccc1)P1(=O)OC(C)(C)CN1C(C)(C)C (stereo not drawn) :: > 100 µM (inactive)

// next entry
Quick one: GI50 of Cc1ccc(C2(c3ccc(F)cc3)OC(=O)c3ccccc32)c(O)c1 (stereo not drawn) ?
5.5 µM (inactive)

====

# System: SK-MEL-2
# test_description: NCI tumour cell line growth inhibition, 48 h
Activity calls are given as the source filed them. Cut-off read from the data, not from the text of the source: active = GI50 up to about 1.1 µM and inactive = higher.
The reply should name one outcome from active, inactive

Would you please look over these solved cases?
Cc1cc2c(c(N)c1C)C(=O)c1ccccc1C2=O :: inactive
c1ccc2c3c(ccc2c1)CSCc1ccc2ccccc2c1-3 :: inactive
OCC1NC(COC2OC(CO)C(O)C(O)C2O)C(O)C(O)C1O (stereo not given) :: inactive
Brc1ccc(-c2ccc(-c3ccc(Br)s3)s2)s1 :: inactive
CCOC(=O)Nn1c(C)cc(C(=O)OC)c1C :: inactive
CC(C)CCNC(=O)c1ccc(CNC(=O)/C=C/c2ccc(OCc3ccccc3)cc2)cc1 :: inactive

GET /call?item= CCCCCCCCCCCC(=O)OCCOCCOCCOCCOCCOC(=O)CCCCCCCCCCC returns the recorded outcome of this test.
inactive

GET /call?item= Cc1noc(C)c1CCCOC1COc2ccccc2OCCOCCOc2ccccc2OC1 returns the recorded outcome of this test.
inactive

GET /call?item= Cc1ccc(NC(=O)C(=O)C2C(=O)NC(=O)NC2=O)cc1C returns the recorded outcome of this test.
inactive

====

# System: KM12
# test_description: NCI tumour cell line growth inhibition, 48 h
Activity calls are given as the source filed them. Cut-off read from the data, not from the text of the source: active = GI50 up to about 1.1 µM and inactive = higher.
endpoint_label: GI50

O=C(NCCS(=O)(=O)N1C(=O)C2CCCN2C(=O)[C@@H]1Cc1ccccc1)OCc1ccccc1 (stereo partly specified) :: 44.2 µM (inactive)
C=CCN1C(=O)/C(=C/c2ccc(C)cc2)NC1=S :: 97.7 µM (inactive)
COc1cccc(C2SCC(=O)N2c2ccc(-n3c(-c4ccccc4)nc4ccccc4c3=O)cc2)c1OC (stereo unspecified) :: > 100 µM (inactive)
COc1cc2c(cc1OC)[C@@H](Nc1ccc(C#N)cc1)C1COC(=O)[C@@H]1C2c1cc(OC)c(O)c(OC)c1 (stereo partly specified) :: 1.59 µM (inactive)
Cc1ccc(NC(=O)C(=O)C2C(=O)NC(=O)NC2=O)cc1C :: > 100 µM (inactive)

Quick one: GI50 of C(/C=C/N1CCCC1)=C\c1nc(N2CCCC2)c2ccccc2n1 ?
17.1 µM (inactive)

Quick one: GI50 of COc1cccc(C2SC(=N)Nc3c2c(C)nn3C(=O)Cc2ccccc2)c1 (stereo unspecified) ?
> 100 µM (inactive)

Quick one: GI50 of CC#Cc1c(C#CC)c(OC)c2c(c1OC)C(=O)c1ccccc1C2=O ?
> 100 µM (inactive)

Quick one: GI50 of CCc1cccc(CC)c1NC(=O)CC1SC(N)=NC1=O (stereo unspecified) ?
> 100 µM (inactive)

Quick one: GI50 of CN(C)c1ccc(/C=C(\NC(=O)c2ccccc2)C(=O)Nc2ccccc2C(=O)NCc2ccccc2)cc1 ?
58.5 µM (inactive)

====

# System: RXF 393
# test_description: NCI tumour cell line growth inhibition, 48 h
Activity calls are given as the source filed them. No stated cut-off is given here; in the data, active = GI50 up to about 1.1 µM and inactive = higher.
The reply should name one outcome from active, inactive

CCC(C)OC(=O)/C(Br)=C1/OC(=O)c2ccccc2-c2ccccc21 (stereo not given) :: inactive
Oc1cnnc2nc3ccccc3n12 :: inactive
O=C(c1ccco1)N(C(=S)OCCOc1ccccc1)c1ccccc1 :: inactive

// next entry
GET /call?item= OC1CSCCSCCCSCCSC1 returns the recorded outcome of this test.
inactive

====

# Tested on: SNB-75
# test_description: NCI tumour cell line growth inhibition, 48 h
Active and inactive are the calls of the source. Rule as the data show it: active = GI50 up to about 1.1 µM and inactive = higher. Square brackets hold non-standard residues; d marks the D form. Peptide text beside a SMILES is read from it. pGlu = O=C1CC[CH](C(=O)O)N1
The reply should name one outcome from true = active, false = inactive

Would you please look over these solved cases?
N=C(N)NC(=N)Nc1ccc(S(N)(=O)=O)cc1 :: false
COc1cc2cc(c1Cl)N(C)C(=O)C[C@H](OC(=O)[C@H](C)N(C)C(C)=O)[C@]1(C)O[C@H]1[C@H](C)[C@@H]1C[C@@](O)(NC(=O)O1)[C@H](OC)/C=C/C=C(/C)C2 :: true
CC(NC(=O)C(Cc1c[nH]cn1)NC(=O)C1CCC(=O)N1)C(N)=O (stereo not drawn) ([pGlu]-His-Ala-NH2; configuration not given here) :: false
CC(C)=CCCc1c(C)ccc2c1C(=O)C(=O)C(C(C)C)=C2 :: false
C[C@H]1CCC2C(CN3CCCCC3)C(=O)OC2[C@]2(C)C(=O)CC(N3CCCCC3)C12O (some centres undefined) :: false
COc1ccc2c(c1)CC1c3c(cc4c(c3-2)OCO4)CCN1C (centres undefined) :: false

GET /call?item= O=C1C2=Cc3ccccc3OC2(O)Oc2ccccc21 (centres undefined) returns the recorded outcome of this test.
false

GET /call?item= CN(/N=C/c1ccnc2ccccc12)c1ccc([N+](=O)[O-])cc1[N+](=O)[O-] returns the recorded outcome of this test.
false

====

# Test system: TK-10
# test_description: NCI tumour cell line growth inhibition, 48 h
Active and inactive are the calls of the source. No stated cut-off is given here; in the data, active = GI50 up to about 1.1 µM and inactive = higher.
endpoint_label: GI50

Quick one: GI50 of CC(=O)NC1(C)CCC(C(C)(C)NC(C)=O)CC1 (stereo not drawn) ?
> 100 µM (inactive)

Quick one: GI50 of C[C@@]1(c2ccccc2)O[C@@H]2C[C@H]3[C@@H]4CCC5=CC(=O)C=C[C@]5(C)[C@@]4(F)[C@@H](O)C[C@]3(C)[C@]2(C(=O)CO)O1 [AMCINAFIDE] ?
19.5 µM (inactive)

Quick one: GI50 of CC(C)(C)C1(O)Cc2ccccc2C(=O)O1 (stereo not drawn) ?
> 100 µM (inactive)

Quick one: GI50 of Cc1[nH]nc(-c2ccon2)c1N=O ?
18.7 µM (inactive)

Quick one: GI50 of COC(=O)[C@]1(c2cc3ccccc3n2S(=O)(=O)c2ccccc2)CC2CCC1NC2 (stereo partly drawn) ?
31.8 µM (inactive)

Quick one: GI50 of CC1=Nc2nc3ccccc3n2C(C)(C)C1 ?
> 100 µM (inactive)

Quick one: GI50 of Cc1ccc([N+](=O)[O-])cc1S(=O)(=O)Nc1ccc(C2=NN(c3ccc([N+](=O)[O-])cc3[N+](=O)[O-])C(c3cccs3)C2)cc1 (stereo not drawn) ?
30 µM (inactive)

Quick one: GI50 of O=C(O)CN1C(=O)OC(c2ccccc2)C1=O (stereo not drawn) ?
> 100 µM (inactive)

Quick one: GI50 of COc1cc2nc(-c3c(F)cccc3F)n(Cc3c(F)cccc3F)c2cc1Cc1c(F)cccc1F ?
> 100 µM (inactive)

Quick one: GI50 of COC(=O)C(NC(=O)CNC(=O)CSc1nnc(COc2ccc(Cl)cc2)n1-c1ccccc1)C(C)C (stereo not drawn) ?
16.9 µM (inactive)

Quick one: GI50 of C=C1C(C(=O)OC)[C@H]1C(=O)OC (stereo partly drawn) ?
> 100 µM (inactive)

Quick one: GI50 of NC(=O)c1cc(-c2ccc(-n3ccnc3)cc2)nnc1O ?
> 100 µM (inactive)

Quick one: GI50 of CS(C)(=O)=N/C=C\C(=O)C(Cl)(Cl)Cl ?
> 100 µM (inactive)
